target or test system: T1, Soluble heterodimeric CD3 protein (hCD3-epsilon/hCD3-delta) with a human Fc tag (hFcΔAdp/hFc) or a mouse Fc … (human, UniProt P07766 23-126; P04234 22-105)
T1 construct: also called hCD3ε/δ; not shown: Fc tag: human (hFcΔAdp/hFc); which tag was used in Ta
T1 sequence (P07766 23-126 limits assumed, stated change not applied, chain 1 of 2): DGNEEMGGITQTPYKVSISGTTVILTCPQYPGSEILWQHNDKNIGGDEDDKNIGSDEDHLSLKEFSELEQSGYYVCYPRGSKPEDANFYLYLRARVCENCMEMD
T1 sequence (P04234 22-105 limits assumed, stated change not applied, chain 2 of 2): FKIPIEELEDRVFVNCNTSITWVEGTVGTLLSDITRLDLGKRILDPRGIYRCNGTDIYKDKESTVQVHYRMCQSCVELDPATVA
test details: SPR Biacore, 25 C, antibody-capture format
endpoint name: T½ (min)
// units = min; emit number, no label

Sample records with T½:
binder	T½, min
H2M3563N (antibody, V domains shown, Hybridoma antibody, human variable regions, mouse IgG2 Fc) VH: EVHLVESGGGLVQPGRSLRLSCAASGFTFDDYTMHWVRQAPGKGLEWVSDISWNSGSIGYADSVKGRFTVSRDNAKNSLYLQMNSLRGEDTALYYCAKDMSGYGHYGKYGMDVWGQGTTVTVSS VL: DIQMTQSPSSLSASVGDRVTITCRASQSIRSYLNWYQQKPGKVPKLLIYAASSLQSGVPSRFSGSGSGTDFTLTINSLQPDDFATYYCQQTYSNPPITFGQGTRLEIK	97
H2M2862N (antibody, V domains shown, Hybridoma antibody, human variable regions, mouse IgG2 Fc) VH: QVQLVESGGGVVQPGRSLRLSCAASGFTFRSYGMHWVRQAPGKGLEWVAMIYYDGNNKKYADSVRGRFTISRDNSKNTLYLQMNSLRVEDTAVYFCARGPGYNWLDPWGQGTLVTVSS VL: EIVMTQSPATLSVSPGERATLSCRASQSVSRNLAWYQQKPGQAPRLLIYGASTRATDIPARFSGSGSGTEFILNISSLQSEDFALYYCQQYSNWPLTFGGGTEVEIK	4

Provide one value: measured T½ of H1M2692N (antibody, V domains shown, Hybridoma antibody, human variable regions, mouse IgG1 Fc) VH: EVQLVESGGGLVQPGGSLRLSCAASGFSFDDYTMHWVRQPPGKGLEWVSGISWNSGSIGYADSVKGRFTISRDNAKNSLYLQMNSLRAGDTALYYCAKDNSGYGYYYYYGMDVWGQGTTVTVSS VL: EIVMTQSPATLSVSPGERATLSCRASQSVSSNLAWYQQKPGQAPRLLIYGASTRATGIPARFSGSGSGTEFTLTISSLQSEDFAVYYCQQYYNWPLTFGGGTKVEIK
27

Where do the numbers come from? From patent US20190127480A1.
